Biological target: T1, anti-CD28 Fab (SEQ ID NOs: 202, 203)
T1 construct: biotinylated and captured on neutravidin coated plates in the phage ELISA
T1 sequence (VH, as listed by the source, chain 1 of 2): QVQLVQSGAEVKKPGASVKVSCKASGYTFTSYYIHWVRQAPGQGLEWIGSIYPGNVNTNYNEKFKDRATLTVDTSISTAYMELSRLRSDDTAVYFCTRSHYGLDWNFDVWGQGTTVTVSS
T1 sequence (VL, as listed by the source, chain 2 of 2): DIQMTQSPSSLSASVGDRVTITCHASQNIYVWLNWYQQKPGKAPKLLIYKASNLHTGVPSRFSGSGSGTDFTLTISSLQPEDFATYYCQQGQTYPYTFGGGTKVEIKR
Experiment: phage ELISA on captured Fab, wells pre-incubated with CD28 antigen (competitor);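 further: clonal phage ELISA with wells pretreated with CD28 plus blocking buffer before phage addition, bound phage detected by HRP-linked anti-M13 antibody, reference wells got blocking buffer only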
Entries annotated with measured Anti-CD28 Fab signal in the presence of CD28
readout: Anti-CD28 Fab signal in the presence of CD28

>  <binder>
YCEGHLPQYMTKCI (on phage, pIII fusion) [Phage-590]

>  <readout_value>
0.08

$$$$
>  <binder>
YCAGHLEEYMWKCL (on phage, pIII fusion) [Phage-559]

>  <readout_value>
0.08

$$$$
>  <binder>
YCEGHAPQYMTKCL (on phage, pIII fusion) [Phage-461]

>  <readout_value>
0.08

$$$$
